# Tested on: A-431
# test_protocol: Cytotoxicity against human A431 cells over-expressing EGFR
# Format: functional, cell-based
pIC50: −log10 of the molar value.

smiles_data | pIC50
COc1ccc(Nc2ncnc3occ(C)c23)cc1 | 6.53
Cc1coc2ncnc(N(C)c3ccc([N+](=O)[O-])cc3)c12 | 6.36
CCN(c1ccc(OC)cc1)c1ncnc2occ(C)c12 | 8.47
CSc1ccc(N(C)c2ncnc3occ(C)c23)cc1 | 8.54
CCc1ccc(N(C)c2ncnc3occ(C)c23)cc1 | 8.85
COc1ccc(N(c2ncnc3occ(C)c23)C(C)C)cc1 | 8.32
Cc1coc2ncnc(N(C)c3ccc(N(C)C)cc3)c12 | 9.00
COc1ccc(N(C)c2ncnc3occ(C)c23)cc1 | 8.29
CCCN(c1ccc(OC)cc1)c1ncnc2occ(C)c12 | 8.64
CNc1ccc(N(C)c2ncnc3occ(C)c23)cc1 | 8.54

* * *

# System: A10
# test_protocol: Induction of microtubule depolymerization in rat A10 cells after 18 hrs by indirect immunofluorescence method
# Format: functional, cell-based
# applied_conditions: A10, 18 h
pEC50: −log10 of the molar value.
assay_endpoint: pEC50

smiles_data | assay_endpoint | value_comparator | reading
Cc1coc2ncnc(Nc3ccc(N(C)C)cc3)c12 | pEC50 | < | 5.00
COc1ccc(/C=C\c2cc(OC)c(OC)c(OC)c2)cc1O | pEC50 | = | 8.01
CNc1ccc(N(C)c2ncnc3occ(C)c23)cc1 | pEC50 | = | 6.62
CNc1ccc(Nc2ncnc3occ(C)c23)cc1 | pEC50 | < | 5.00
Cc1coc2ncnc(N(C)c3ccc([N+](=O)[O-])cc3)c12 | pEC50 | < | 5.00
Cc1coc2ncnc(Nc3ccc([N+](=O)[O-])cc3)c12 | pEC50 | < | 5.00
Cc1coc2ncnc(N(C)c3ccc(N(C)C)cc3)c12 | pEC50 | = | 6.85

* * *

# measurement_target: Epidermal growth factor receptor (Homo sapiens, UniProt P00533)
# Sequence (P00533 whole entry): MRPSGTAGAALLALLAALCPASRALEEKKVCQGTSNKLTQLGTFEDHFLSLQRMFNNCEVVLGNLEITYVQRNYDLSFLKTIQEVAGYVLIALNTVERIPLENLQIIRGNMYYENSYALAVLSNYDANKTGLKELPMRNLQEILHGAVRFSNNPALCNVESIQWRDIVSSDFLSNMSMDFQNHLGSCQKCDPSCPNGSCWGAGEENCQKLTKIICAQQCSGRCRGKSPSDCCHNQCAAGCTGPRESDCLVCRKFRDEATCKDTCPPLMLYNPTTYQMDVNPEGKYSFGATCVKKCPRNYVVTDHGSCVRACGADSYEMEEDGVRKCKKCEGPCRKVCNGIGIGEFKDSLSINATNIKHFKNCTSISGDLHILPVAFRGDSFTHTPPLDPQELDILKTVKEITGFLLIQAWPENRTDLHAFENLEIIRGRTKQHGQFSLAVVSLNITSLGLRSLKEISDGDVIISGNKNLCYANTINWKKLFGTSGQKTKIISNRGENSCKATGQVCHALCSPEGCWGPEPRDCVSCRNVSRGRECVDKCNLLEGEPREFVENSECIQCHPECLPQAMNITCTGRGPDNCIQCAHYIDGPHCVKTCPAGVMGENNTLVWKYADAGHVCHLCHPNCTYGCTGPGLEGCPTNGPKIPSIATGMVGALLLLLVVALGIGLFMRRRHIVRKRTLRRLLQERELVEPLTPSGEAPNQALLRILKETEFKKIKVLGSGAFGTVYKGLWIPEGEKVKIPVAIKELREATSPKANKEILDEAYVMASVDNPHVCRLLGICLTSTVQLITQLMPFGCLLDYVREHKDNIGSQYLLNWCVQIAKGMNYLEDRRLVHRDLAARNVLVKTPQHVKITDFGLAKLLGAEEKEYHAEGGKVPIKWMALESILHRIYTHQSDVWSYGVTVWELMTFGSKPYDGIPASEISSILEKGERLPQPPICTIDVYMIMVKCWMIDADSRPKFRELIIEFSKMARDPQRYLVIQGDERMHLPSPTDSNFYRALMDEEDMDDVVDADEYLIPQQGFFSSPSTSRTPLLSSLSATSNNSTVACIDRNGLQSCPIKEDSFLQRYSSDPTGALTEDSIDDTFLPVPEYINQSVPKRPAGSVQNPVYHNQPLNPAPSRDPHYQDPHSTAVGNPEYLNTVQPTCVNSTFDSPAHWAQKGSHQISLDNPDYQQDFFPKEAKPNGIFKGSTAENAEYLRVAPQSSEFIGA
pIC50: −log10 of the molar value.

smiles_data | value_comparator | pIC50
Cc1coc2ncnc(N(C)c3ccc(N(C)C)cc3)c12 | = | 8.51
CNc1ccc(N(C)c2ncnc3occ(C)c23)cc1 | = | 8.19
CCc1ccc(N(C)c2ncnc3occ(C)c23)cc1 | = | 8.40
Cc1coc2ncnc(Nc3ccc([N+](=O)[O-])cc3)c12 | < | 6.70
CSc1ccc(N(C)c2ncnc3occ(C)c23)cc1 | = | 8.14
Cc1coc2ncnc(Nc3ccc(N(C)C)cc3)c12 | < | 6.70
COc1ccc(Nc2ncnc3occ(C)c23)cc1 | = | 6.55

* * *

Dear all, this message contains pIC50 results, target or system Vascular endothelial growth factor receptor 2 (Homo sapiens, UniProt P35968).
pIC50: −log10 of the molar value.

smiles_data | value_comparator | pIC50
CCCN(c1ccc(OC)cc1)c1ncnc2occ(C)c12 | = | 7.92
CCN(c1ccc(OC)cc1)c1ncnc2occ(C)c12 | = | 7.17
CNc1ccc(Nc2ncnc3occ(C)c23)cc1 | < | 6.70
CNc1ccc(N(C)c2ncnc3occ(C)c23)cc1 | = | 7.90
Cc1coc2ncnc(Nc3ccc([N+](=O)[O-])cc3)c12 | < | 6.70
COc1ccc(N(C)c2ncnc3occ(C)c23)cc1 | = | 8.03
CSc1ccc(N(C)c2ncnc3occ(C)c23)cc1 | = | 7.87
Cc1coc2ncnc(N(C)c3ccc(N(C)C)cc3)c12 | = | 7.81
CCc1ccc(N(C)c2ncnc3occ(C)c23)cc1 | = | 8.11
Cc1coc2ncnc(N(C)c3ccc([N+](=O)[O-])cc3)c12 | < | 6.70
Cc1coc2ncnc(Nc3ccc(N(C)C)cc3)c12 | < | 6.70
COc1ccc(N(c2ncnc3occ(C)c23)C(C)C)cc1 | = | 7.63
COc1ccc(Nc2ncnc3occ(C)c23)cc1 | = | 7.42
